Test system: XccR binding to the luxXc box
Assay: EMSA: effect of sugars on binding of XccR to the luxXc box
Conditions: XccR-MBP, increasing sugar concentrations (glucose 0.005-5 μM)
resultType: Effect on binding of XccR to the luxXc box

molecule="O=C[C@H](O)[C@@H](O)[C@H](O)[C@H](O)COP(=O)(O)O [glucose 6‐phosphate, D‐glucose 6‐phosphate]" observed="did not enhance"
molecule="OC[C@H]1O[C@@](CO)(O[C@H]2O[C@H](CO)[C@@H](O)[C@H](O)[C@H]2O)[C@@H](O)[C@@H]1O [sucrose]" observed="did not enhance"
molecule="OC[C@H]1OC(O)[C@H](O)[C@@H](O)[C@@H]1O (some centres unmarked) [glucose, D‐glucose]" observed=enhanced
molecule="O=C(CO)[C@@H](O)[C@H](O)[C@H](O)CO [fructose]" observed="did not enhance"

Attention now turns to another entry.
Query: Answer with the recorded Effect on binding of XccR to the luxXc box for the molecule listed here: O=CC[C@@H](O)[C@H](O)[C@H](O)CO [2‐deoxyglucose, 2‐deoxy‐D‐glucose, reference compound]
Response: enhanced

All values here come from paper PMC10013830.
